testedSystem: HCV NS3/4A protease complex (Hepatitis C virus genotype 1a, UniProt P27958, C1454S/C1711G)
Construct: DNA encoding the recombinant HCV NS3/4A protease complex (amino acids 1027 to 1711) for these strains; inferred from the pET21b vector and Ni-NTA purification; made in house; host or cells: Escherichia coli BL21 (DE3)
Sequence (P27958 1027-1711 C1454S/C1711G, one chain of several): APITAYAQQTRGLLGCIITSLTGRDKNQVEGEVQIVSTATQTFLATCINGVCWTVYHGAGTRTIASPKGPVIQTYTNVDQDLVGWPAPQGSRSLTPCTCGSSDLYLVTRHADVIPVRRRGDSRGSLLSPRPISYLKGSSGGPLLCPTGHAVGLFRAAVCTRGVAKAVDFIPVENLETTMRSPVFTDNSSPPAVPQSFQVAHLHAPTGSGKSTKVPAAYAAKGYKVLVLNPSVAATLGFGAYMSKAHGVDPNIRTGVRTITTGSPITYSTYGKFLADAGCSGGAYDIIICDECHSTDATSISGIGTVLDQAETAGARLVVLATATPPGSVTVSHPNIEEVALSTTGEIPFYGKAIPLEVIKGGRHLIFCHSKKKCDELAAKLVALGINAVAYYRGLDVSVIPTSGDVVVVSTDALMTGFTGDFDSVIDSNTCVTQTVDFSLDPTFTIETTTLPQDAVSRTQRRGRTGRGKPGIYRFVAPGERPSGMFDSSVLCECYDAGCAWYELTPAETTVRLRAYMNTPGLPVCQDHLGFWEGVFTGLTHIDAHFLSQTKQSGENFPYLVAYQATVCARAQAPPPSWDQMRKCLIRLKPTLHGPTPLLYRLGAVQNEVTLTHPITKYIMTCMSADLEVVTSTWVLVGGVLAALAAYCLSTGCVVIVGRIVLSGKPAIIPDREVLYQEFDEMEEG
assayName: FRET peptide assay to monitor HCV NS3/4A proteolytic activity
Assay type: biochemical
protocolConditions: recombinant NS3/4A protease complex, strain not stated
assayMetric: pIC50
Schema: pIC50 number; meaning minus log10 of the concentration expressed in molar units.

Query: Quick one: pIC50 for C=C[C@@H]1C[C@]1(NC(=O)[C@@H]1C[C@@]2(c3ccc(-c4ccccc4)cc3)CN1C(=O)[C@@H](NC(=O)OC(C)(C)C)CCCCC/C=C/CS2)C(=O)NS(=O)(=O)C1CC1 ?
Reply: 8.30
